Assign self-cleavage to each entry below.
B1: CPEB3 Ribozyme (parent)
chain: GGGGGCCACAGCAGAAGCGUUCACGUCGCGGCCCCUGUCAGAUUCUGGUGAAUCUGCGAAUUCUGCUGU

# Variants of: B1
# assayProtocol: self-cleavage, relative activity (ratio to wild type); higher = more cleavage; co-transcriptional
One number for each entry.

Record excerpt, results attached:
> print(dat)
   mutationnotation  measurementname  recordedresult
1         G48U C57G    self-cleavage           0.398
2         G25A A51C    self-cleavage           0.209
3         G30A C54G    self-cleavage           0.333
4         A10C U36C    self-cleavage           0.966
5         C12A U64A    self-cleavage           0.582

# per-item lookup of self-cleavage; items listed below
1. C22U A40G
2. C24A C57A
3. U38A A52C

result:
[0.266, 0.188, 0.898]
